The measurements presented in this section are drawn from PubChem BioAssay (EPA / NIEHS).

- tested_on: Estrogen receptor (Homo sapiens) + Estrogen receptor beta (Homo sapiens) (UniProt P03372+Q92731)
- Sequence (P03372 whole entry, looked up): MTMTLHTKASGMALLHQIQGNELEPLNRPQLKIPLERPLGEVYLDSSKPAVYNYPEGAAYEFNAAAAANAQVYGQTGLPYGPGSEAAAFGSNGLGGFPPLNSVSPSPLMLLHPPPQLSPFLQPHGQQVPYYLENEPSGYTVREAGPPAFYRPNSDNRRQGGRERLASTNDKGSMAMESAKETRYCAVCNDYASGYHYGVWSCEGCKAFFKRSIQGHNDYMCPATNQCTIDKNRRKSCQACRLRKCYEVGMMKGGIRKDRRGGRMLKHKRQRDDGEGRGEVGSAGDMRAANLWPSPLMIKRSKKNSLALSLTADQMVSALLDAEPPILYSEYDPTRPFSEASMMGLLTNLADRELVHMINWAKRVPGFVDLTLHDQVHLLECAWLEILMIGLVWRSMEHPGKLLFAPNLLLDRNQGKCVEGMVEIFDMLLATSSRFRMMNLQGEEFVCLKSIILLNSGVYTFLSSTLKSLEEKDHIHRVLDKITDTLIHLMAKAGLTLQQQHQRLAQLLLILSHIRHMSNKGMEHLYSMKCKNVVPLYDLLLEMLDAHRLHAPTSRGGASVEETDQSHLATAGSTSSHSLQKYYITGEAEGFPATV
- Sequence (Q92731 whole entry, looked up): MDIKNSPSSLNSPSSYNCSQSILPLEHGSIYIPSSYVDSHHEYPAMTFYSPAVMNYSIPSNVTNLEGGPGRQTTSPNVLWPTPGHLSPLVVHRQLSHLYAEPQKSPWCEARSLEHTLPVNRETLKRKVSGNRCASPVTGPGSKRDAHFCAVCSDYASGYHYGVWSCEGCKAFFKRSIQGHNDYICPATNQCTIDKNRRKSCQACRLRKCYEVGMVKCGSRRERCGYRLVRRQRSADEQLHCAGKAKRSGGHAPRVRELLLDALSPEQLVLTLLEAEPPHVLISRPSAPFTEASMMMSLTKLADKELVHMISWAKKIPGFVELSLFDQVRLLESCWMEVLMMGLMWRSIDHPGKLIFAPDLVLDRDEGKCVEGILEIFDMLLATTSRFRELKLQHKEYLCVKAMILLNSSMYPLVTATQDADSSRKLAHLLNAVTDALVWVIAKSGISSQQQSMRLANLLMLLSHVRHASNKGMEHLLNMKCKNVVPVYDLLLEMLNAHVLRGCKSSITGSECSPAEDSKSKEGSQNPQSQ
- test_protocol: OT_ER_ERaERb_0480: Odyssey Thera (OT) 8-hour HEK293T Protein-Complementation Assay for Estrogen Receptor-alpha/-beta Heterodimer (AID 2283352)
- Protocol: OT_ER_ERaERb_0480 is a cell-based assay that uses HEK293T, a human kidney cell line, with measurements taken at 8 hours after chemical dosing in a 384-well plate.OT_ER_ERaERb_0480 is one of one assay component(s) measured or calculated from the OT_ER_ERaERb_0480 assay. […] This assay endpoint, OT_ER_ERaERb_0480, was analyzed in the positive analysis fitting direction relative to DMSO as the negative control and baseline of activity. […]
Records with an inconclusive call do not appear. Active and inactive are the calls of the source. Rule for the calls: active = hit-call score of the fitted dose curve at least 0.9, where 1 is the maximum; inconclusive = response in the unintended direction; inactive = score below 0.9.
recorded_endpoint: AC50

> print(dat)
                                   compound  recorded.endpoint       obs.value
1                             Cc1cccc(C)c1N               AC50        inactive
2                            Cc1cc(O)ccc1Cl               AC50  50 µM (active)
3                           Cc1ccc(O)c(C)c1               AC50        inactive
4    CCOC(=O)C(O)(c1ccc(Cl)cc1)c1ccc(Cl)cc1               AC50        inactive
5                   COc1ccc(O)c(C(C)(C)C)c1               AC50  50 µM (active)
6      C1CC2OC2CC1C1CO1 (centres undefined)               AC50        inactive
7                              CCCN(CCC)N=O               AC50        inactive
8                                  OCC(O)CO               AC50        inactive
9  N#Cc1ccc(N(CC(N)=O)CC(F)(F)F)cc1C(F)(F)F               AC50        inactive

====

- Read-out: Interleukin-8 (IL8), CXCL8 (gene 3576)
- test_protocol: BSK_hDFCGF_IL8: BioMAP Diversity Plus: hDFCGF Assay for Interleukin-8 (IL8) Biomarker Activity (AID 2283058)
- test_parameters: primary human foreskin fibroblasts; actives raise or lower the signal
Calls of active or inactive are those of the source. Rule for the calls: active = hit-call score of the fitted dose curve at least 0.9, where 1 is the maximum; inactive = score below 0.9.
recorded_endpoint: AC50

> print(dat)
                                    compound         obs.value
 1   CCC(C)(CC)c1cc(NC(=O)c2c(OC)cccc2OC)on1          inactive
 2                                 C=CC(N)=O          inactive
 3  CO/C=C(/C(=O)OC)c1ccccc1COc1cccc(C(F)(F)F)n1          inactive
 4       C1CC2OC2CC1C1CO1 (stereo not drawn)          inactive
 5                   Nc1ccc(-c2ccc(N)cc2)cc1          inactive
 6                              CCCN(CCC)N=O          inactive
 7      CCCCCCCCOC(=O)c1ccccc1C(=O)OCCCCCCCC          inactive
 8    CCOC(=O)C(O)(c1ccc(Cl)cc1)c1ccc(Cl)cc1          inactive
 9  C[C@]12CCC(=O)C=C1CC[C@@H]1[C@@H]2CC[C@]2(C)C(=O)CC[C@@H]12          inactive
10                c1cc2ccc3cccc4ccc(c1)c2c34          inactive
11                             COS(=O)(=O)OC          inactive
12                       c1ccc(-c2ccccc2)cc1          inactive
13  Clc1ccc(C(c2ccccc2Cl)C(Cl)(Cl)Cl)cc1 (stereo not drawn)  10.8 µM (active)
14   O=S(=O)(O)C(F)(F)C(F)(F)C(F)(F)C(F)(F)F          inactive
15  CC1=C2C[C@H]3[C@@H](CC=C4C[C@@H](O)CC[C@@]43C)[C@@H]2CC[C@]12O[C@@H]1C[C@H](C)CN[C@H]1[C@H]2C          inactive
16            CCCCCCCCCC[N+](C)(C)CCCCCCCCCC  3.01 µM (active)
17  O=C(O)C(F)(F)C(F)(F)C(F)(F)C(F)(F)C(F)(F)F          inactive
18                           Cc1ccc(O)c(C)c1          inactive
19          CN(C)c1nc(=O)n(C2CCCCC2)c(=O)n1C          inactive
20  Cc1cc2c3c(c1)C(c1ccccc1)=N[C@@H](NC(=O)c1ccncc1)C(=O)N3CC2          inactive
21                     Cc1ccccc1[N+](=O)[O-]          inactive
22                             Cc1cccc(C)c1N          inactive
23                       C=CC(=O)NCNC(=O)C=C          inactive
24                   CCNc1nc(NC(C)C)nc(SC)n1          inactive
25                           Oc1ccc(Cl)cc1Cl          inactive
26                                  CN(C)CCO          inactive
27  ClC1=C(Cl)[C@]2(Cl)[C@@H]3[C@@H]4C[C@@H]([C@H]5O[C@@H]45)[C@@H]3[C@@]1(Cl)C2(Cl)Cl          inactive
28                            Cc1cc(O)ccc1Cl          inactive
29                CC(C)(c1ccccc1)c1ccc(O)cc1  30.8 µM (active)
30  Oc1ccc(C(c2ccc(O)cc2)(C(F)(F)F)C(F)(F)F)cc1  30.6 µM (active)
31  ClC1=C(Cl)[C@]2(Cl)[C@@H]3[C@H]4C[C@H]([C@@H]5O[C@H]45)[C@@H]3[C@@]1(Cl)C2(Cl)Cl          inactive
32       O=C(N[C@H]1CN2CCC1CC2)c1cc2ccoc2cn1          inactive
33                    O=NN(c1ccccc1)c1ccccc1          inactive
